# TARGET UNDER TEST: GST-Xa-hAAK1 (Homo sapiens (Human))
# Sequence (Q2M2I8 whole entry): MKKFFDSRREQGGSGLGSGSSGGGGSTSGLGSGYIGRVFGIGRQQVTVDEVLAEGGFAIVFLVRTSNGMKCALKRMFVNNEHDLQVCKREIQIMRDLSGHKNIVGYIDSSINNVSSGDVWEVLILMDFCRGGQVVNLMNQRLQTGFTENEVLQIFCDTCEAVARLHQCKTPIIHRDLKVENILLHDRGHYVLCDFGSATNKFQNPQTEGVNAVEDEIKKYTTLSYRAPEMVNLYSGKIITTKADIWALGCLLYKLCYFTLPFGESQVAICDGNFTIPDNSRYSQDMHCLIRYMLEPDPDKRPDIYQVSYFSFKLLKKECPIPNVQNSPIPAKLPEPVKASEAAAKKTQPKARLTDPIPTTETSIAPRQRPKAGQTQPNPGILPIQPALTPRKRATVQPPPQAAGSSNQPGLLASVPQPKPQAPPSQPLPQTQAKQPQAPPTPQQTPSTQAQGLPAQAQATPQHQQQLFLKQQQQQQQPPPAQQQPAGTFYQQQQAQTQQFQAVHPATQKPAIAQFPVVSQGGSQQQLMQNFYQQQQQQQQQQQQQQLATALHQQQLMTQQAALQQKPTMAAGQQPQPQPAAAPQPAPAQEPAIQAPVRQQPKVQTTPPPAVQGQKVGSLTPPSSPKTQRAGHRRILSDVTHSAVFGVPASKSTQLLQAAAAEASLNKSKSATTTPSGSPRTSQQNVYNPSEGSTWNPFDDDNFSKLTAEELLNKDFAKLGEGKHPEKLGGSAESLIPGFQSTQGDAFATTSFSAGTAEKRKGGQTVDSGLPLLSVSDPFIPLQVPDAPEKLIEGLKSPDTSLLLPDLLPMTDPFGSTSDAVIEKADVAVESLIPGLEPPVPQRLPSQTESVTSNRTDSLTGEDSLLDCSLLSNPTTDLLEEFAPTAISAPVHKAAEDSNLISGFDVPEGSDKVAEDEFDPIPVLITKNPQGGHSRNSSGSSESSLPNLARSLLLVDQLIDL
RESULT TYPE: IC50 (nM)
Form entry: value (nM) — number only.

Ask | Hello, please tell me recorded IC50 for this one: `COC(=O)Nc1nccc(-c2ccc(OC[C@@](C)(N)CC(C)C)c(F)c2)n1`
Reply | 9.1

Ask | Hello, please tell me recorded IC50 for this one: `Cc1cc(-c2ccnc(C(F)(F)F)n2)ccc1OC[C@@](C)(N)CC(C)C`
Reply | 7.3

Ask | Hello, please tell me recorded IC50 for this one: `CCc1cc(-c2cnc(OC[C@@](C)(N)CC(C)C)c(C)c2)ncn1`
Reply | 304

Ask | Hello, please tell me recorded IC50 for this one: `COC(=O)Nc1cc(-c2ccc(OC[C@@](C)(N)CC(C)C)c(Cl)c2)cnn1`
Reply | 58

Ask | Hello, please tell me recorded IC50 for this one: `Cc1cc(-c2ccc(OC[C@@](C)(N)CC(C)C)c(C(F)(F)F)c2)ncn1`
Reply | 8.5

Ask | Hello, please tell me recorded IC50 for this one: `Cc1nc(-c2ccnc(C(F)(F)F)c2)ccc1OC[C@@](C)(N)CC(C)C`
Reply | 512

Ask | Hello, please tell me recorded IC50 for this one: `Cc1cc(-c2cnc(OC[C@@](C)(N)CC(C)C)c(Cl)c2)ncn1`
Reply | 62

Ask | Hello, please tell me recorded IC50 for this one: Cc1nccc(-c2ccc(OCC(N)(CC(C)C)C(F)(F)F)c(C)n2)n1 (centres unmarked) [Example 491]
Reply | 789

Source: patent US10544120B2
